# Study target: Induced myeloid leukemia cell differentiation protein Mcl-1 (Homo sapiens, UniProt Q07820, R263A)
# Sequence (Q07820 whole entry R263A): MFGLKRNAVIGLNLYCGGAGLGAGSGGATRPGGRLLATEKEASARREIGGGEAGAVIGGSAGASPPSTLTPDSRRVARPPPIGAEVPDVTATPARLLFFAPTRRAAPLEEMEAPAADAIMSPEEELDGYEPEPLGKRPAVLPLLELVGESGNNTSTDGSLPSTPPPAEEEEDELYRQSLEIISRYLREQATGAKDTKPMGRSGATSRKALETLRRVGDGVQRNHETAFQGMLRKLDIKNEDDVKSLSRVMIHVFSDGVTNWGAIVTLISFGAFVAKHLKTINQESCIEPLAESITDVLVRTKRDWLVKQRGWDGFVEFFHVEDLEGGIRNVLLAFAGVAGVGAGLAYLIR
# Assay name: Binding affinity to cMcl-1 R263A mutant (unknown origin) by ITC assay
Overview of reported pKd across a group of compounds:
Bear in mind: pKd is minus log10 of a mol/L concentration; give just that figure.

>  <Structure smiles string>
N#CC1=C2C(=NC1=O)c1cccc3c(N4CCSCC4)ccc2c13

>  <Recorded result>
4.54

$$$$

Exercise: Sample CCCCNC1=C2C(=NC1=O)c1cccc3c(Sc4ccc(N)cc4)ccc2c13 — what was its pKd?
Solution: 4.89

Exercise: Sample CCCCCCNC1=C2C(=NC1=O)c1cccc3c(Oc4ccc(C(C)C)cc4)ccc2c13 — what was its pKd?
Solution: 4.72

Exercise: Sample Nc1ccc(Sc2ccc3c4c(cccc24)C2=NC(=O)C(NCCCc4ccccc4)=C23)cc1 — what was its pKd?
Solution: 5.63
